Origin of the recorded values: paper PMC8795197

# Assay Procedure: Metabolic stability in liver microsomes
# Type: in vitro ADME
# Settings: human liver microsomes; read-out: elimination half-life
Value Kind: half-life

query: Item under review: COc1cc(N2CCC3(CCN(C)CC3)CC2)ccc1Nc1ncc(Cl)c(Nc2ccccc2P(C)(C)=O)n1 . Reported half-life?
result: > 2.42 h

---

# Assay Procedure: Phase 1 dose-escalation phase: plasma pharmacokinetics
# Type: in vivo, human
# Settings: human, plasma, oral, 120 mg, single dose 120 mg (n = 11), mean (SD); read-out: AUC0-t
# Description: Three patients were assigned to each dose level. In the dosing cohort of 30 mg, treatment included a single WX-0593 dose, followed by 7-day PK evaluation period, and subsequent daily oral dosing for continuous 21 days. […] Safety analysis was performed in the SS, which was comprised of all patients treated with one dose of WX-0593 and with safety data recorded. […] The plasma concentration of WX-0593 will be determined using LC-MS.
Value Kind: AUC(0-t) (ng·h/mL)
Kindly provide the numeric value in ng·h/mL only, without the unit symbol.

query: Could you share which AUC(0-t) value was measured for COc1cc(N2CCC3(CCN(C)CC3)CC2)ccc1Nc1ncc(Cl)c(Nc2ccccc2P(C)(C)=O)n1 [WX-0593] ?
result: 7780
